Molecular target: UniProt O58802
Sequence (O58802 1-319): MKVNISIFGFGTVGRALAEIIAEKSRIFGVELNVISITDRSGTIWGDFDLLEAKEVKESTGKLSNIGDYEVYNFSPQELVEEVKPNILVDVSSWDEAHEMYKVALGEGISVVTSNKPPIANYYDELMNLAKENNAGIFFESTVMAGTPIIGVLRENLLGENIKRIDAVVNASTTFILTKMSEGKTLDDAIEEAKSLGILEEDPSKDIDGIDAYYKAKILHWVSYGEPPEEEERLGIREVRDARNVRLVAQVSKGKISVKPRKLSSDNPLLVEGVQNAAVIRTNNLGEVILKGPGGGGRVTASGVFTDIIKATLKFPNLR
reported_metric: Ki (nM)
Give your result in nM as a bare value.

Query :: Can you share its Ki? I mean this compound: `NC(=O)c1ccc[n+]([C@@H]2O[C@H](COP(=O)(O)OP(=O)(O)OC[C@H]3O[C@@H](n4cnc5c(N)ncnc54)[C@H](OP(=O)(O)O)[C@@H]3O)[C@@H](O)[C@H]2O)c1`
Result :: 5.2
